Target: glucagon receptor (GCGR) overexpressed CHO-K1 cells or human primary hepatocytes (Homo sapiens)
Construct: expressed in transfected cells; host or cells: GCGR overexpressed CHO-K1 cells or human primary hepatocytes (endogenous receptor)
Sequence (P47871 26-477): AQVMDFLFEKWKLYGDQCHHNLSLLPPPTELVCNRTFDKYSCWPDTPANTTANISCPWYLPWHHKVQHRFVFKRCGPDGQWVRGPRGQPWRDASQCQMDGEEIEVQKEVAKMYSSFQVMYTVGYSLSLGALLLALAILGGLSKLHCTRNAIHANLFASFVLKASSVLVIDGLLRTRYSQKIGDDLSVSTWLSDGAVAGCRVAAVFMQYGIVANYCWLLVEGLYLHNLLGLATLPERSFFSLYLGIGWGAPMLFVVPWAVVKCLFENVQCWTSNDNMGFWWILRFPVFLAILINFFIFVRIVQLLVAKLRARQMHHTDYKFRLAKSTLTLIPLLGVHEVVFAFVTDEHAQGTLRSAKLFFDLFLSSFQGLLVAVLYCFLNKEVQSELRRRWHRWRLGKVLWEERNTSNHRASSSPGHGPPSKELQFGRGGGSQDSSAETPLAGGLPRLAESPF
Assay: Glucagon cAMP inhibition assay (Cisbio cAMP Dynamic 2 HTRF)
Assay type: cell-based
Details: inhibition of glucagon (EC50 concentration) induced cAMP production
Field: IC50 cAMP. Provide a value for each of the compounds that follow.
Numbers only, in nM.

// solved cases for IC50 cAMP follow
- compound: "CC[C@H](C)[C@@H](COc1ccc(-c2ccc(C(F)(F)F)cc2Cl)nc1)Nc1ccc(C(=O)NCCC(=O)O)cc1 [Compound 10-16]"
  unit_of_measurement: "nM"
  IC50 cAMP: 272
- compound: "CC(C)[C@@H](COc1ccc(-c2ccc(N(C)C)cc2Cl)cc1)Nc1ccc(C(=O)NCCC(=O)O)cc1 [Compound 1-37]"
  unit_of_measurement: "nM"
  IC50 cAMP: 376
- compound: "CC[C@H](C)[C@@H](COc1cc(C)c(-c2ccc(Cl)cc2Cl)c(C)c1)Nc1ccc(C(=O)NCCC(=O)O)cc1 [Compound 2-9]"
  unit_of_measurement: "nM"
  IC50 cAMP: 447.6
- compound: "CC(C)[C@@H](COc1ccc(-c2cc3ccccc3o2)cc1)Nc1cnc(C(=O)NCCC(=O)O)cn1 [Compound 9-1]"
  unit_of_measurement: "nM"
  IC50 cAMP: 386.1
- compound: "CC[C@H](C)[C@@H](COc1ccc(-c2cc3ccccc3o2)cc1)Nc1ccc(C(=O)NCc2nnn[nH]2)cc1 [Compound 1-8]"
  unit_of_measurement: "nM"
  IC50 cAMP: 3305
- compound: "CC(C)[C@@H](COc1ccc(-c2ccc(Cl)cc2Cl)cn1)Nc1ccc(C(=O)NCCC(=O)O)cn1 [Compound 16-1]"
  unit_of_measurement: "nM"
  IC50 cAMP: 357.2

State recorded IC50 cAMP for all listed compounds.
1. COC(=O)CCNC(=O)c1ccc(N[C@H](COc2ccc(-c3nc4ccccc4s3)cc2)C(C)C)cc1 [Compound 1-31]
2. CC(C)[C@@H](COc1ccc(-c2ccc(C(F)(F)F)cc2)nc1)Nc1ccc(C(=O)NCCC(=O)O)cc1 [Compound 10-1]
3. CCCC[C@@H](COc1ccc(-c2ccc(C(F)(F)F)cc2Cl)cc1)Nc1ccc(C(=O)NCCC(=O)O)cc1 [Compound 1-19]
4. CC(C)[C@@H](COc1ccc(-c2cc(Cl)cc(Cl)c2)c(F)c1)Nc1ccc(C(=O)NCCC(=O)O)cc1 [Compound 8-12]
5. CCCC[C@@H](COc1ccc(-c2nnc(C(C)(C)C)o2)cc1)Nc1ccc(C(=O)NCCC(=O)O)cc1 [Compound 1-49]

OUTPUT:
1. 83
2. 1959
3. 93
4. 1243
5. 7065

INPUT: I would be grateful if you could share the reported IC50 cAMP for CC[C@H](C)[C@@H](COc1cc(C)c(-c2ccc(C(F)(F)F)cc2)c(C)c1)Nc1ccc(C(=O)NCCC(=O)O)cc1 [Compound 2-10] .
OUTPUT: 241.4
